// data source = patent US20250368734A1

- MEASURED_TARGET: T1, mouse GPRC5D (mouse, UniProt Q9JIL6 1-344)
- T1 construct: whole, on cells; HEK293T-mGPRC5D cells; also called mGPRC5D; murine GPRC5D
- T1 sequence (looked up): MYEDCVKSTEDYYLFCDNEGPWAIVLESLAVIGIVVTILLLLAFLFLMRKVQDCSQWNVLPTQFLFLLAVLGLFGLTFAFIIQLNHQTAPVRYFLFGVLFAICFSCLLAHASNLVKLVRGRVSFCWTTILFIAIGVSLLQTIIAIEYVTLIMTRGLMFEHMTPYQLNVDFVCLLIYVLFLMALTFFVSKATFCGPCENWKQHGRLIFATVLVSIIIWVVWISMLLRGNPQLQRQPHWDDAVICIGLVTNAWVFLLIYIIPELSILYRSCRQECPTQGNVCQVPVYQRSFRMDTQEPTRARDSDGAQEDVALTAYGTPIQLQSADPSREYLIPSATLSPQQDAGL
- MEASUREMENT_NOTES: FACS, HEK293T-mGPRC5D cells

# BINDER, RESULT_UNITS, % Positive
records = [
    ("82A1C10 (antibody, V domains shown, Mouse monoclonal antibody from hybridoma subclone) VH: QVQLKESGPGLVAPSQSLSITCTVSGFSLTNYAVTWVRQPPGKGLEWLGVIWGDGSTYYHSALVSRLSITKDNSRTQVLLKLNSLQTDDTARYYCAKGGYSPFAYWGQGTLVTVSA VL: DVVMTQTPLSLPVSLGDQASISCRSSQSLVHSNGNTYLHWYLQKPGQSPKLLIFKVSNRFSGVPDRFSGSGSGTDFTLKISRVEAEDLGVYFCSQNTHVPFTFGSGTKLEIK", "%", 4.5),
    ("98A3A8 (antibody, V domains shown, Mouse monoclonal antibody from hybridoma subclone) VH: EVQLQQSGPELVKPGASVKMSCKASGYTFTYYVTHWVRQKPGQGLEWIGYINPYNDGTMFNEKFKGKATLTSDKSSSTAYMEFSSLTSEDSAVFYCARGGVRRYFDVWGAGTTVTVSS VL: DIQMTQSPSSLSASLGERVSLTCRASQDIGSNLNWLQQKPDGTIKRLIYATSSLDSGVPKRFSGSRSGSDYSLTINSLESEDFVDYYCLQYASFPYTFGGGTKLEIK", "%", 89.4),
    ("89F11E3 (antibody, V domains shown, Mouse monoclonal antibody from hybridoma subclone) VH: QVQLQQSGAELARPGASVKMSCKASGYTFTSSTIHWVKQRPGQGLAWIGYIVPSTGYTNYNQKFKDKATLTADKSSSTAYMQLTSLTSEDSAVYYCARSDGYPFGYSMAYWGQGTSVTVSS VL: DIQMNQSPSSLSASLGDTITITCHASQNINVWLSWYHQKPGNIPKLLIYKASNLHTGVPSRFSGSGSGTGFTLTISRLQPEDIATYYCQQGQSYPFTFGSGTKLEIK", "%", 74.6),
    ("87A3G8 (antibody, V domains shown, Mouse monoclonal antibody from hybridoma subclone) VH: QVQLKESGPGLVAPSQSLSITCTVSGFSLSSYSVYWVRQPPGKGLEWLGVIWAGGSTNYNSALMSRLSINKDKSKSQVFLKMNSLQTDDSAIYYCAMRWLPRGLDFWGQGTSVTVSS VL: DIVMTQSHKFMSTSVGDRVSITCKASQDVGTAVAWYQQKPGQSPKLLIYWASTRHTGVPDRFTGSGSGTDFTLTISNVQSEDLADYFCQQYSTYYTFGGGTKLEIK", "%", 46.2),
    ("110B4H5 (antibody, V domains shown, Mouse monoclonal antibody from hybridoma subclone) VH: EVQLQQSGPELVKPGASVKMSCKASGYTFTFYIMHWVKQKPGQGPEWIGYINPYNDGTKYNAKFKGKATLSSDRSSSTAYMELSSLTSEDSAVYYCARGGVRRYFDVWGAGTPVTVSS VL: DIQMTQSPSSLSASLGERVSLTCRSSQDIGSNLNWLQQEPDGTIKRLIYATFSLDSGVPKRFSGSRSGSHYSLTISSLESEDFVVYYCLQYGSFPYTFGGGTKLEIK", "%", 78.9),
    ("ATG596 (antibody, V domains shown, Human IgG1; also called benchmark antibody ATG596; positive human IgG1 control antibody) VH: QVQLVQSGAEVKKPGASVKVSCKASGYSFTGYTMNWVRQAPGQGLEWMGLINPYNSDTNYAQKLQGRVTMTTDTSTSTAYMELRSLRSDDTAVYYCARVALRVALDYWGQGTLVTVSS VL: DIQMTQSPSSLSASVGDRVTITCKASQNVATHVGWYQQKPGKAPKRLIYSASYRYSGVPSRFSGSGSGTEFTLTISNLQPEDFATYYCQQYNRYPYTFGQGTKLEIK", "%", 97.3),
    ("96C9E7 (antibody, V domains shown, Mouse monoclonal antibody from hybridoma subclone) VH: EVQLQQSGPELVKPGASVKMSCKASGYTFTYYILHWVKQKPGQGLEWIGYFNPYNDGNKFNERFRGKATLTSDKSSSTAYMELNSLTSEDSAVYFCARGGVRRYFDVWGAGTTVTVSS VL: DIQMTQSPSSLSASLGERVSLTCRASQDIGSNLNWLQQEPDGTIKRLISATFSLDSGVPKRFSGSRSGSDYSLTISSLESEDFVNYYCLQYASFPYTFGGGTKLEIK", "%", 49.2),
    ("90G6H3 (antibody, V domains shown, Mouse monoclonal antibody from hybridoma subclone) VH: QAYLQQSGAELVRSGASVKMSCKASGYTFTSYIMHWVKQTPGQGLEWIGYIYPGNGGTNYNQKFKDKATLSADTSSSTAYMQINSLTSEDSAVYFCARWGLRQGFAYWGQGTLVSVSA VL: DIVMTQSQKFMSTSVGDRVSVTCKASQNVGGNVAWYQQKPGQSPKALIYSTSYRNSGVPDRFTGSGSGTDFTLTISNVQSEDLAEYFCQQYNSYPFTFGSGTKLEIR", "%", 87.4),
]
